biological target: UniProt Q96SB4; experiment: In vitro kinase assay (Kinase-Glo), SRPK1; type: biochemical; conditions: Table 1; read-out: IC50 (nM) for SRPK1
Sequence (Q96SB4 whole entry, species assumed): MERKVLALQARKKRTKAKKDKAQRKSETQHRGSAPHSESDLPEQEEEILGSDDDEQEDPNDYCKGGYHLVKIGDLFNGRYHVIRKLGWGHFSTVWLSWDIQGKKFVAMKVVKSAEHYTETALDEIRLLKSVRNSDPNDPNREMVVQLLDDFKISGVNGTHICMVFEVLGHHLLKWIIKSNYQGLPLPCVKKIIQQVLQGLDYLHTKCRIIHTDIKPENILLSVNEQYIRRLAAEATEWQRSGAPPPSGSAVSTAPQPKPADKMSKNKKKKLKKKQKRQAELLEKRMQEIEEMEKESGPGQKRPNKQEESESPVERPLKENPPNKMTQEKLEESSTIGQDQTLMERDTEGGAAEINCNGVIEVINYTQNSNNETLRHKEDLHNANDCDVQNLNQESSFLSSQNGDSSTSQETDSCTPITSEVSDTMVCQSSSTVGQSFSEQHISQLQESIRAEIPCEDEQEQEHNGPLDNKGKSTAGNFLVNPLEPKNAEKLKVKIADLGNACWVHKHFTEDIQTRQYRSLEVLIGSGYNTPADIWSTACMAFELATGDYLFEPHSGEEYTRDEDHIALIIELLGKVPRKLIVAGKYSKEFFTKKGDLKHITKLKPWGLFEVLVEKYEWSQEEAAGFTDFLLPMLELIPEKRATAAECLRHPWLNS
A collection of compounds and their measured IC50
Answer with a number only, understood to be in nM.

Some compounds with recorded IC50:
- STRUCTURE SMILES: "CN1CCN(c2ccc(C(F)(F)F)cc2NC(=O)c2ccc(C#N)o2)CC1"
  READOUT VALUE: 1270
- STRUCTURE SMILES: "CN(C)CCNc1ccc(C(F)(F)F)cc1NC(=O)c1ccc(-c2cccnc2)o1"
  READOUT VALUE: 9310
- STRUCTURE SMILES: "CN(C)CCN1CCN(c2ccc(C(F)(F)F)cc2NC(=O)c2ccc(-c3cccnc3)o2)CC1"
  READOUT VALUE: 177

Could you now look at the following compound, please?
## Task Reported IC50 for CN1CCN(c2ccc(C(F)(F)F)cc2NC(=O)c2ccc(-c3cccnc3)o2)CC1 : what is it?
## Result 367
